Assay: NCI Yeast Anticancer Drug Screen. Data for the sgs1 strain (AID 173)
Settings: S. cerevisiae sgs1 mutant, at 11.0 µM, stronger effect = higher value
This is part of a sample that, as a whole, favours compounds with a hit. Of some 79,000 tested, about 15% had one in any assay.
Answer n if growth inhibition is under 20%, and y if it is 20% or more.

Use these answered entries as a reference point.
> print(dat)
                                   compound  discrete.label
1  O=C1C2CC(Cl)C(SSC3CC4C(=O)N(SC(Cl)(Cl)C(Cl)Cl)C(=O)C4CC3Cl)CC2C(=O)N1SC(Cl)(Cl)C(Cl)Cl (stereo not given)               y
2  O=C(O)C1C2CCC(C2)C1c1ccccc1 (stereo not given)               n
3             BrCC[N+]12CC[N+](CCBr)(CC1)C2               n
4               O=S(=O)(O)c1ccc(Cl)cc1.[Cd]               n

Ask | In plain terms: is recorded growth inhibition at least 20% for COc1cccc2c1C(=O)c1c(O)c3c(c(O)c1C2=O)C[C@@](O)(/C(C)=N\O)C[C@@H]3OC1CC(N)C(O)C(C)O1 (stereo not given in full) ?
Reply | n
